Target: Human Inducible Nitric Oxide Synthase (Homo sapiens, UniProt P35228)
Counter-ions that a name gives are not always drawn.
observable: IC50 (µM)
Answers are plain numbers, in µM.

Example entries and their recorded answers appear below.
compound="N=C(N)NC[C@H]1CN[C@H](C(=O)O)C1 [compound 2, Dihydrochloride]" reported_measurement=3.5
compound="N=C(N)N[C@@H]1CN[C@H](C(=O)O)C1 [compound 3, Dihydrochloride]" reported_measurement=2.7
compound="COC(=O)[C@@H]1C[C@@H](CNC(=N)N)CN1 [compound 6, Dihydrochloride]" reported_measurement=11
compound="N=C(N)SC[C@@H]1CN[C@H](C(=O)O)C1 [compound 5, Dihydrochloride]" reported_measurement=111

// recorded IC50 for N=C(N)NC[C@@H]1CN[C@H](C(=O)O)C1 [compound 1, Dihydrochloride] : 7.1
